# protocol: NCI Yeast Anticancer Drug Screen. Data for the sgs1 mgt1 strain (AID 161);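 note: 0% = growth of cultures given vehicle only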
# conditionNotes: S. cerevisiae sgs1 mgt1 strain, at 50.0 µM, hits give high values
Compounds without any hit were thinned out: in the full panel of roughly 79,000, 15% have a hit.
reportedEndpoint: growth inhibition (%)

compound | reportedEndpoint | observedMeasurement
CCOC(=O)CC1CC2c3cc(OC)c(OC)cc3CCN2CC1CC (configuration not stated) | growth inhibition | -6.7
CC(=O)c1ccccc1 | growth inhibition | -16.1
Cc1cc[n+](Cc2ccccc2Cl)c(C)c1 | growth inhibition | 14
Cc1nc2c(=O)n3c4c(cccc4c2o1)CCC3 | growth inhibition | 21.6
Oc1ccc(Cl)c(O)c1 | growth inhibition | -3.65
O=C1C2Cc3ccccc3CN2C(=O)N1CN1CCN(CN2C(=O)C3Cc4ccccc4CN3C2=O)CC1 (configuration not stated) | growth inhibition | -16.6
CCC(CC)CC1CCCCC1O (configuration not stated) | growth inhibition | -46.9

Value source: PubChem BioAssay (NCI)
